Hello, the source for this data is patent US20250223358A1, in case you need it.

Biological target: T1, human CD3 (human, UniProt P07766 23-207; P04234 22-171; P09693 23-182)
T1 construct: whole, on cells; also called hCD3; CD3 on Jurkat cells
T1 sequence (P07766 23-207, chain 1 of 3): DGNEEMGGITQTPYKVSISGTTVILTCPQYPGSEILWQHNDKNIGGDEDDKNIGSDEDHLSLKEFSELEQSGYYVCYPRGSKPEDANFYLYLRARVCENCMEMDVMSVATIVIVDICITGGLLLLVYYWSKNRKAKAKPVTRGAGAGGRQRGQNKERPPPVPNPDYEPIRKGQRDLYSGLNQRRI
T1 sequence (P04234 22-171, chain 2 of 3): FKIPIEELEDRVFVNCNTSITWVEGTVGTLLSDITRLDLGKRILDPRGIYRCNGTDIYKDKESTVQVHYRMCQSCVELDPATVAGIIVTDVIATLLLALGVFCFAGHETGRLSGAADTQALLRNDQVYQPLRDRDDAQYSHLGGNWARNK
T1 sequence (P09693 23-182, chain 3 of 3): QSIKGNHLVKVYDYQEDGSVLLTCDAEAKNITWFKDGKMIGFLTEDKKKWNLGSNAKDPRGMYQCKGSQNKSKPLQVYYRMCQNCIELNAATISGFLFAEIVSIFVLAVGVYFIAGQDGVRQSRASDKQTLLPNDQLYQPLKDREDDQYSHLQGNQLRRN
Assay: FACS on Jurkat cells
property_name: EC50 (nM)
Write down the numeric answer in nM and omit the unit.

Consider the reported EC50 for these binders:
binder	EC50 / nM
hu40E9-L2H3-Y101F.H (antibody, V domains shown) VH: EVQLVQSGAEVKKPGSSVKVSCKASGYTFSSYVIHWVRQAPGQGLEWMGYINPYNDVIKYNEKFKGRVTLTSDKSTSTAYMELSSLRSEDTAVYYCARDSFYSYDGFAYWGQGTLVTVSS VL: EIVLTQSPDFQSVTPKEKVTITCSASSSVSYMHWYQQKPDQSPKRLIYDTSKLASGVPSRFSGSGSGTDFTLTINSLEAEDAATYYCQQWSSNPPTFGGGTKVEIK	0.64
ch40-C12-C10-E9 (antibody, V domains shown) VH: EVQLQLSGPELVKPGASVKMSCKASGYTFSSYVIHWVKQKPGQGLEWIGYINPYNDVIKYNEKFKGKATLTSDKSSSTAYMELSSLTSEDSAVYYCARDSYYSYDGFAYWGQGTLVTVSA VL: QIVLTQSPAIMSASPGEKVTMTCSASSSVSYMHWYQQKSGTSPKRWIYDTSKLASGVPARFSGSGSGTSYSLTISSMEAEDAATYYCQQWSSNPPTFGGGTKVEIK	0.45
hu40E9-L2H1 (antibody, V domains shown, humanized 40-C12-C10-E9) VH: EVQLVQSGAEVKKPGSSVKVSCKASGGTFSSYVIHWVRQAPGQGLEWMGYINPYNDVIKYNEKFKGRVTITADKSTSTAYMELSSLRSEDTAVYYCARDSYYSYDGFAYWGQGTLVTVSS VL: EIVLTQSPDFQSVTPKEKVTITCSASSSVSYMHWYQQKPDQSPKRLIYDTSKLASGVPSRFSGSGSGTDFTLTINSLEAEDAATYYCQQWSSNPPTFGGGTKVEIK	0.73
hu40E9-L2H3-D99E.H (antibody, V domains shown) VH: EVQLVQSGAEVKKPGSSVKVSCKASGYTFSSYVIHWVRQAPGQGLEWMGYINPYNDVIKYNEKFKGRVTLTSDKSTSTAYMELSSLRSEDTAVYYCARESYYSYDGFAYWGQGTLVTVSS VL: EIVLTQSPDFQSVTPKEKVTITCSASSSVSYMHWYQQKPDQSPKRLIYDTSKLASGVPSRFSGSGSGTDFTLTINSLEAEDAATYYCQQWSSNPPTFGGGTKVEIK	0.31

Next item in the queue.
Input line: EC50 lookup needed for hu40E9-L2H3-Y54G.H (antibody, V domains shown) VH: EVQLVQSGAEVKKPGSSVKVSCKASGYTFSSYVIHWVRQAPGQGLEWMGYINPGNDVIKYNEKFKGRVTLTSDKSTSTAYMELSSLRSEDTAVYYCARDSYYSYDGFAYWGQGTLVTVSS VL: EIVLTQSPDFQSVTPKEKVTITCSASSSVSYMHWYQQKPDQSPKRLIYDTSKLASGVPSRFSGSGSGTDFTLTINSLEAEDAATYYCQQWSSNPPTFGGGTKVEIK , thanks.
Output line: 0.51
